Test system: P12-Ichikawa
Test: cell viability relative to DMSO control; higher = less cytotoxic
Conditions: RPMI 5 mM glucose + 10% FBS; 48 h; 0.19 µM
assay-metric: cell viability (%)
Quick note: give the figure in %, leave out the unit.

Look at this compound and give its reported cell viability. ClC1=CC=C(CCCOC/2=N/NC(=O)C(=C2NCC3=CN=CC=C3)/Br)C=C1
124

Look at this compound and give its reported cell viability. O=C(O)[C@H](Cc1c[nH]c2ccccc12)N1C(=O)c2ccccc2C1=O
103

Look at this compound and give its reported cell viability. CNC(=O)c1cccc(-c2ccc3c(N4CCOC[C@@H]4C)nc(N4CCOC[C@@H]4C)nc3n2)c1
57.2

Look at this compound and give its reported cell viability. Clc1cccc(-c2nnnn2Cc2cccnc2)c1Cl
93.7

Look at this compound and give its reported cell viability. CC(C)(C)/[N+]([O-])=C/c1ccc([S+](=O)([O-])[O][Na])cc1[S+](=O)([O-])[O][Na]
123

Look at this compound and give its reported cell viability. C[N]1C=NC=C1[C@@](N)(C2=CC=C(Cl)C=C2)C3=CC=C4N(C)C(=O)\C=C(\C5=CC=CC(=C5)Cl)C4=C3
81.2

Look at this compound and give its reported cell viability. COc1ccc(/C=C\c2cc(OC)c(OC)c(OC)c2)cc1O
11.2

Look at this compound and give its reported cell viability. Cc1ccc(C(C)(O)c2nc3ccccc3s2)c(C)c1 (centres undefined)
107

Look at this compound and give its reported cell viability. CN(N=O)C(=O)N[C@H]1C(O)OC(CO)[C@@H](O)[C@@H]1O (some centres undefined)
85.2

###

Tested on: P12-Ichikawa
Test: cell viability relative to DMSO control; higher = less cytotoxic
Conditions: HPLM + 10% dialyzed FBS; 48 h; 46.1 µM
assay-metric: cell viability

Look at this compound and give its reported cell viability. NC(=O)c1ccc(-c2nc(-c3ccc4c(c3)OCCO4)c(-c3ccccn3)[nH]2)cc1
111%

Look at this compound and give its reported cell viability. CNC(=O)[C@H](Cc1ccccc1)NC(=O)[C@H](CC(C)C)[C@H](CSc1cccs1)C(=O)NO
66.8%

Look at this compound and give its reported cell viability. CC[C@H]1OC(=O)[C@H](C)[C@@H](O[C@H]2C[C@@](C)(OC)[C@@H](O)[C@H](C)O2)[C@H](C)[C@@H](O[C@@H]2O[C@@H](C)C[C@H](N(C)C)[C@H]2O)[C@](C)(O)C[C@@H](C)C(=O)[C@H](C)[C@@H](O)[C@]1(C)O
18.4%

Look at this compound and give its reported cell viability. CCC(=O)O[C@@]1([C@@H](C)C[C@H]2[C@@H]3CCC/4=C/C(=O)/C=C\[C@]4(C)[C@@]3(F)[C@@H](O)C[C@]12C)C(=O)CCl
55%

Look at this compound and give its reported cell viability. O=[N+]([O-])c1cn2c(n1)OC[C@@H](OCc1ccc(OC(F)(F)F)cc1)C2
110%

Look at this compound and give its reported cell viability. Nc1nc(-c2nn(Cc3ccccc3F)c3ncccc23)nc(N)c1N1CCOCC1
95.9%

Look at this compound and give its reported cell viability. COc1cc(N2CCC(C(N)=O)CC2)ccc1Nc1nc(N)c(Cl)c(Nc2ccccc2[S+](=O)([O-])C(C)C)n1
3.45%

Look at this compound and give its reported cell viability. CCC[C@@H]1C[C@@H](C(=O)N[C@@H]([C@H]2O[C@H](SC)[C@H](O)[C@@H](O)[C@H]2O)[C@@H](C)O)N(C)C1.Cl
100%

Look at this compound and give its reported cell viability. CN1CCCN(C(=O)c2cccc(-c3ccc(/C=C4/C(=O)Nc5ccc(Cl)cc54)o3)c2)CC1
59.2%

Look at this compound and give its reported cell viability. COc1cc(N2CCC(O)CC2)ccc1Nc1cc(Nc2ccccc2[S+](=O)([O-])C(C)C)c2cc[nH]c2n1
80.2%

Look at this compound and give its reported cell viability. COc1cc2nccc(Oc3ccc(NC(=O)Nc4ccc(F)cc4F)c(F)c3)c2cc1OC
12.9%

Look at this compound and give its reported cell viability. Nc1ccccc1NC(=O)c1ccc(CNc2nccc(-c3cccnc3)n2)cc1
7%
